B1: Transcription factor SOX-11, residues 50 to 117; numbered along this chain, P35716 (parent)
chain: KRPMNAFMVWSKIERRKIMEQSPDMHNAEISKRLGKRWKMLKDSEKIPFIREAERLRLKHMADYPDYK

# Variants of: B1
# test summary: abundance fitness (aPCA) (normalised: wild type 0, dead -1); higher = more abundant; growth selection in yeast, the domain comes from the species named
# conditions used: Homo sapiens
# abundance fitness per entry

{"columns": ["mutation annotation", "abundance fitness"],
 "data": [
  ["E29R", -1.1],
  ["Q21I", -0.13],
  ["N27R", -0.341],
  ["G35Q", 0.212],
  ["L34P", -0.222],
  ["E45P", -0.918],
  ["S22F", 0.118],
  ["L41N", -0.849],
  ["I47L", 0.162],
  ["N27H", 0.139],
  ["R55D", -0.119],
  ["K46E", -0.74],
  ["D24Y", -0.35],
  ["R33S", 0],
  ["P23K", -1.28],
  ["P23M", -0.85],
  ["K32S", -0.253],
  ["G35W", -0.207],
  ["M25H", -0.641],
  ["P23V", -0.598],
  ["M25C", -0.34],
  ["K32D", 0.047],
  ["K46L", -0.982],
  ["R55W", -0.277],
  ["K46V", -0.647],
  ["Q21T", -0.13],
  ["L41C", -0.876],
  ["E45I", -0.336],
  ["A28E", -0.061],
  ["L34V", -0.531],
  ["K42N", 0.051],
  ["R55H", -0.213],
  ["K46M", -0.85],
  ["S31E", 0.489],
  ["K42E", -0.387],
  ["I47F", -0.23],
  ["K42W", -0.706],
  ["N27A", 0.177],
  ["K42C", -0.424],
  ["K39D", 0.008],
  ["H26K", 0.195],
  ["E45F", -0.297],
  ["K36A", 0.084],
  ["W38N", -0.914],
  ["N27C", -0.08],
  ["E20N", -0.236],
  ["W38V", -0.766],
  ["R33E", 0.343]
]}
